GI50 listing for selected compounds.
System: M14
Protocol: NCI tumour cell line growth inhibition, 48 h
Activity calls are given as the source filed them. No stated cut-off is given here; in the data, active = GI50 up to about 1.1 µM and inactive = higher.

Example entries and their recorded answers appear below.
> print(dat)
                                   compound               result
1  O=C1[C@@H]2[C@@H](c3ccccc3)[C@]2(Cl)C(=O)[C@H]2[C@H](c3ccccc3)[C@@]12Cl  > 100 µM (inactive)
2   COc1ccc(/C=C/C(=O)/C=C/c2ccc(OC)cc2)cc1   21.1 µM (inactive)
3    CCCCNC(=S)Nn1c(-c2ccccc2)nc2ccccc2c1=O  > 100 µM (inactive)
4  CC(C)(C)OC(=O)N(CCNS(=O)(=O)c1cccc2cnccc12)CCC(=O)ON1C(=O)CCC1=O  > 100 µM (inactive)
5  CC(C)=CC(C)C(C(O)CCC1(c2ccoc2)OCCO1)S(=O)(=O)c1ccccc1 (centres undefined)  > 100 µM (inactive)

What value of measured GI50 is listed for COC1=CC(=O)C2C(C1=O)C(c1ccc(OC)c(OC)c1)[C@H]2C (some centres undefined) ? 19 µM (inactive)

Same again, this time with O=C(Oc1ccc2c(-c3ccccc3)c(C(=O)Nc3ccc(Cl)cc3)c(=O)oc2c1)c1ccccc1 > 100 µM (inactive)

Likewise for [N-]=[N+]=Nc1c([N+](=O)[O-])c(=O)n2c3c(cccc13)CCC2 ? 10.8 µM (inactive)

And then O=C(/C=C/c1ccc(O)c(O)c1)NC(CO)C(=O)O (centres undefined) , what is it? > 100 µM (inactive)
